- TESTED TARGET: Jak2 (UniProt O60674)
- Sequence (O60674 whole entry, looked up): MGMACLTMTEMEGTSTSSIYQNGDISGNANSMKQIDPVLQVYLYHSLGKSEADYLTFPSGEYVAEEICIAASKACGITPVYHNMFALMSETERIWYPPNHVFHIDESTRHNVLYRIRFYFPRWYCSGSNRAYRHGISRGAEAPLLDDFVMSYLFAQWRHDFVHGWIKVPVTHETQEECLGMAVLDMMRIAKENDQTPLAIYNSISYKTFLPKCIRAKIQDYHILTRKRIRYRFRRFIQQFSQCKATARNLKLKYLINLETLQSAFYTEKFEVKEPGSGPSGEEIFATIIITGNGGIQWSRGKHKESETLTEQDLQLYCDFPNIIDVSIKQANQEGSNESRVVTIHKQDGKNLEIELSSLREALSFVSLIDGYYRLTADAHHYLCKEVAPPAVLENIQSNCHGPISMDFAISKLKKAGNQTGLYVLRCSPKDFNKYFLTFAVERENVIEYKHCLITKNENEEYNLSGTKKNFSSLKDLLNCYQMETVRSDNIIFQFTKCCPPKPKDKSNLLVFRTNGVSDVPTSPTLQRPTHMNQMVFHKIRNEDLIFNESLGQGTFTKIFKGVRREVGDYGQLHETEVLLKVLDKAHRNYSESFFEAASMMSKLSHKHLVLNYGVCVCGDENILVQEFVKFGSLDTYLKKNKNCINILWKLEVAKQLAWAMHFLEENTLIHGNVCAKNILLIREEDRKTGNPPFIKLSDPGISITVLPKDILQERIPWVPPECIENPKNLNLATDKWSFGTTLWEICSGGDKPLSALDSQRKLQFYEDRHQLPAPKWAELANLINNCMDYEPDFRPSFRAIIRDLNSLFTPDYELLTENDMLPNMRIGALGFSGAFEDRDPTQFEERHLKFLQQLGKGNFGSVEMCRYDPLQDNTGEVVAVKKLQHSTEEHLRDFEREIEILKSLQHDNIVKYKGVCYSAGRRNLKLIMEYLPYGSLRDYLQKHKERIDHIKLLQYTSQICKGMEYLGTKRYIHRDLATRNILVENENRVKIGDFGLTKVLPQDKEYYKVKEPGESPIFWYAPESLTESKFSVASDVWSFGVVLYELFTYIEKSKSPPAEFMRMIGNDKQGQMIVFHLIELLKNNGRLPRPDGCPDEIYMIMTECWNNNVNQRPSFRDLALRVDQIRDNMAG
- PROCEDURE SUMMARY: phosphorylation enrichment, bacterial display (enrichment ratio); higher = better substrate or ligand; peptides without Tyr show the background;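 note: 11-residue human phosphosite peptides and single-mutation variants displayed on the E. coli surface, counted by deep sequencing, each peptide's frequency after selection divided by its frequency in the unselected input library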;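 note: frequency after pTyr selection over input frequency; kinase dosed for 20-30% of maximal phosphorylation in three min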
ENDPOINT NAME: phosphorylation enrichment
Could you keep your reply to the number by itself?

Quick check: phosphorylation enrichment of FTAVGYHKHIT [NOMO1_Y1137] ?
0.524

Can you handle AAAAMYTFLPD [MYORG_Y36] next?
1.31

Can you handle DFLSSYSAVNE [OAT_Y85_Q90E] next?
0.745

Can you handle QKINKYLTVPA [SLC9A1_Y683_N682K] next?
0.588

Can you handle HPWPRYTTRAP [FNDC1_Y1281_Q1280R] next?
0.518

Can you handle ADARMYGVHPW [PLP1_Y207_L210H] next?
0.521

Can you handle ALAHKYLGGGG [HBB_Y146_H147L] next?
0.464

Can you handle RDVEQYVNNVN [PCDH19_Y1097_L1094V] next?
0.855

Can you handle `STKELYEKFMI` next?
0.619

Can you handle AVRYIYTIDGS [DCX_Y105_G100A] next?
0.972

Can you handle DGDTRYSTFSE [TKTL1_Y318] next?
0.849

Can you handle FISVGYVDGTQ [HLA-B_Y51_D54G] next?
0.696

Can you handle AAARPYHIQKW [ACSBG1_Y677] next?
0.682

Can you handle IKNSGYISQYL [EIF2AK3_Y585_R588Q] next?
0.617

Can you handle SPPILYSFYLD [FCRL6_Y239] next?
0.775

Can you handle FDAHIYEGRVI [PRKCD_Y64] next?
0.639

Can you handle YEDTLYTVLHR [UNC13D_Y61_A59T] next?
1.39

Can you handle IFGEEYEEQPR [ZMYM2_Y1033_V1028I] next?
1.16

Can you handle RVEDAYILTCN [CCT6A_Y229] next?
0.772

Can you handle GGGFGYQKTKK [DDX18_Y643] next?
0.814

Can you handle DVRQEYSGMIL [PLXND1_Y616_P617S] next?
0.678

Can you handle TNRSVYFKPSL [NUP153_Y382] next?
0.66

Can you handle MPPHICAITDT [MYH9_Y151_Y151C] next?
0.981

Can you handle TLLAFYMGNFS [GLB1_Y552_P549L] next?
1.59

Can you handle KTVQDYLKKFF [MMP8_Y36_E38K_YF] next?
0.795

Can you handle KHCEDYVCSYN [DSC1_Y846] next?
0.93

Can you handle SQETFYRVSNM [ABCD1_Y181_Q178E_YF] next?
0.7

Can you handle SVTFTYSPALN [TP53_Y126_C124Y_YF] next?
0.991

Can you handle ALVDTYCRHNY [HLA-DRB1_Y107_A103L] next?
0.456

Can you handle RAEIVYKSPVV [MAPT_Y711_G706R] next?
0.779

Can you handle VHNLDYFKQTT [FGFR3_Y647_K650Q_YF] next?
1.31

Can you handle HKDNNYISMWF [PAPOLG_Y432_V433I] next?
1.46

Can you handle RRIHSYRSHLW [VHL_Y112_G114S] next?
0.487

Can you handle EATKGYPDDPT [G6PD_Y322_L323P] next?
1.07

Can you handle EQMASYFGHSV [ITGA2B_Y319] next?
0.842

Can you handle GHGRFYMKEAI [PGM1_Y66_D62H] next?
0.662

Can you handle HTLIKYTDGDQ [PUS7L_Y94] next?
1.75

Can you handle IGEGTYGVVFK [CDK2_Y15_YF] next?
0.815

Can you handle EVVGRYSLHNA [MLH1_Y183_V185L] next?
0.445

Can you handle ASFSLYEPAKM [MKI67_Y340_P338S] next?
0.954

Can you handle FSNVLYRPRGA [TMIGD2_Y197_YF] next?
0.478

Can you handle VSSPKYGSNDE [TMCC2_Y473_D476N] next?
0.857

Can you handle PQGVGYPQQQQ [EP300_Y2219_P2221Q] next?
0.713

Can you handle KPMDTYFDSTR [DYNC2H1_Y2230_YF] next?
0.758

Can you handle KPPFSYNALIM [FOXG1_Y186] next?
0.632

These data points were gathered from the supplement of paper PMC10065799.
